studySystem: T1, human LAG3 on recombinant CHO cells (human, UniProt P18627 23-525)
T1 construct: whole, on cells; also called Lag3 cells; recombinant CHO cells expressing Lag3
T1 sequence (looked up): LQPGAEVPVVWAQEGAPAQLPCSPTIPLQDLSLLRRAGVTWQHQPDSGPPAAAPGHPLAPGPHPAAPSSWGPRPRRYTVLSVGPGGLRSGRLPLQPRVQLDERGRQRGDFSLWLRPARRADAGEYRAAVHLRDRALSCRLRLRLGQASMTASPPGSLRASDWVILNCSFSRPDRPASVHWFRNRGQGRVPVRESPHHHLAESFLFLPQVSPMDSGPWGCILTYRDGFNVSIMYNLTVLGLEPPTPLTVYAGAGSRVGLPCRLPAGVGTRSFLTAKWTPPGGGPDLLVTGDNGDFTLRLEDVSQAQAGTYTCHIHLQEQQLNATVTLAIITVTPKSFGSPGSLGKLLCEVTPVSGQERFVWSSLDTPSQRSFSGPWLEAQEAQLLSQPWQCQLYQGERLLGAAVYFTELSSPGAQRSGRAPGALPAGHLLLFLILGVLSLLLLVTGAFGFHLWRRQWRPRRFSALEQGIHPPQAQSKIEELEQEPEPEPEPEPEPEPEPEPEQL
testMethodNotes: cell ELISA on CHO cells expressing human LAG3;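 also: bivalent Fc-format binders titrated in threefold steps from 6 µg/mL, incubated with the cells 2 h at 4 °C, bound antibody detected by HRP-coupled anti-human IgG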
OD max values, listed per item
Give just the numeric value; OD need not be written.

# annotated cases, reported OD max shown
| binder | unitsOfMeasure | OD max |
| --- | --- | --- |
| bivalent 17D7 aVH-Fc (Fc fusion) EVQLVESGGGLVQPGGSLRLSCAASGFNIKDTCIGWVRRAPGKGTELVAEICTDIGYTRYADSVKGRFTISADTSKNTAYLQMNSLRAEDTAVYYCAAGEGSSGFHYWGQGTTVTVSSGGGGSGGGGSDKTHTCPPCPAPEAAGGPSVFLFPPKPKDTLMISRTPEVTCVVVDVSHEDPEVKFNWYVDGVEVHNAKTKPREEQYNSTYRVVSVLTVLHQDWLNGKEYKCKVSNKALGAPIEKTISKAKGQPREPQVYTLPPSRDELTKNQVSLTCLVKGFYPSDIAVEWESNGQPENNYKTTPPVLDSDGSFFLYSKLTVDKSRWQQGNVFSCSVMHEALHNHYTQKSLSLSPGK | OD | 1.4 |
| bivalent P10D1 aVH-Fc (Fc fusion) EVQLVESGGGLVQPGGSLRLSCAASGFSIKDTCIAWVRRAPGKGTELVAEICEDIGYTRYADSVKGRFTISADTSKNTAYLQMNSLRAEDTAVYYCAAKEAGVGFDYWGQGTTVTVSSGGGGSGGGGSDKTHTCPPCPAPEAAGGPSVFLFPPKPKDTLMISRTPEVTCVVVDVSHEDPEVKFNWYVDGVEVHNAKTKPREEQYNSTYRVVSVLTVLHQDWLNGKEYKCKVSNKALGAPIEKTISKAKGQPREPQVYTLPPSRDELTKNQVSLTCLVKGFYPSDIAVEWESNGQPENNYKTTPPVLDSDGSFFLYSKLTVDKSRWQQGNVFSCSVMHEALHNHYTQKSLSLSPGK | OD | 1.2 |
| bivalent 9B4 aVH-Fc (Fc fusion) EVQLVESGGGLVQPGGSLRLSCAASGFNIKDTCIGWVRRAPGKGTELVAEICQDIGYTRYADSVKGRFTISADTSKNTAYLQMNSLRAEDTAVYYCAAVEVAEYFEYWGQGTTVTVSSGGGGSGGGGSDKTHTCPPCPAPEAAGGPSVFLFPPKPKDTLMISRTPEVTCVVVDVSHEDPEVKFNWYVDGVEVHNAKTKPREEQYNSTYRVVSVLTVLHQDWLNGKEYKCKVSNKALGAPIEKTISKAKGQPREPQVYTLPPSRDELTKNQVSLTCLVKGFYPSDIAVEWESNGQPENNYKTTPPVLDSDGSFFLYSKLTVDKSRWQQGNVFSCSVMHEALHNHYTQKSLSLSPGK | OD | 1.3 |

Query: What does the record list as OD max for bivalent 19G3 aVH-Fc (Fc fusion) EVQLVESGGGLVQPGGSLRLSCAASGFNIKYQCIGWVRRAPGKGTELVAEICSYDGYTRYADSVKGRFTISADTSKNTAYLQMNSLRAEDTAVYYCAAEESVEGFIYWGQGTTVTVSSGGGGSGGGGSDKTHTCPPCPAPEAAGGPSVFLFPPKPKDTLMISRTPEVTCVVVDVSHEDPEVKFNWYVDGVEVHNAKTKPREEQYNSTYRVVSVLTVLHQDWLNGKEYKCKVSNKALGAPIEKTISKAKGQPREPQVYTLPPSRDELTKNQVSLTCLVKGFYPSDIAVEWESNGQPENNYKTTPPVLDSDGSFFLYSKLTVDKSRWQQGNVFSCSVMHEALHNHYTQKSLSLSPGK ?
Result: 1.3
